Measured Insecticidal activity (mortality rate grade) Aphiscraccivora, listed per entry for reference.
Test system: Aphiscraccivora
Experiment: Insecticidal activity, dipping method
Format: in vivo
Details: 500 mg/L test solution
observed property: Insecticidal activity (mortality rate grade) Aphiscraccivora

{"compound": "CC1=NNC(=O)N(N=Cc2ccc[n+](CCCCS(=O)(=O)[O-])c2)C1 [IV-3]", "value measured": "9 (90˜100%)"}
{"compound": "CC(=O)N1N=C(C)CN(N=Cc2ccc[n+](CCCS(=O)(=O)[O-])c2)C1=O [IV-4]", "value measured": "9 (90˜100%)"}
{"compound": "N#CCNC(=O)c1c[n+](CCCS(=O)(=O)O)ccc1C(F)(F)F [Compound I-1]", "value measured": "9 (90˜100%)"}
{"compound": "O=C(NCCc1ccc(OC(F)(F)F)cc1)c1c[n+](C/C=C/S(=O)(=O)O)ccc1C(F)(F)F [Compound I-5]", "value measured": "7 (70˜90%)"}

---

System: Aphiscraccivora
Assay: Insecticidal activity, dipping method
Assay type: in vivo
Conditions: 125 mg/L test solution
observed property: Insecticidal activity (mortality rate grade) Aphiscraccivora

{"chemical smiles": "N#CCNC(=O)c1c[n+](C/C=C/S(=O)(=O)O)ccc1C(F)(F)F", "value measured": "7 (70˜90%)"}
{"chemical smiles": "CCC(=O)N1N=C(C)CN(N=Cc2ccc[n+](CCCS(=O)(=O)[O-])c2)C1=O", "value measured": "7 (70˜90%)"}
{"chemical smiles": "O=C(NCCc1ccc(OC(F)(F)F)cc1)c1c[n+](C/C=C/S(=O)(=O)O)ccc1C(F)(F)F", "value measured": "3 (30˜50%)"}
{"chemical smiles": "CCC(=O)N1N=C(C)CN(N=Cc2ccc[n+](CCCCS(=O)(=O)[O-])c2)C1=O", "value measured": "7 (70˜90%)"}
{"chemical smiles": "O=C(NCCc1ccc(OC(F)(F)F)cc1)c1c[n+](CCCCS(=O)(=O)O)ccc1C(F)(F)F", "value measured": "5 (50-70%)"}
{"chemical smiles": "CC(=O)N1N=C(C)CN(N=Cc2ccc[n+](CCCCS(=O)(=O)[O-])c2)C1=O", "value measured": "9 (90˜100%)"}
{"chemical smiles": "COC(=O)Nc1nc2ccccc2n1C/C=C/S(=O)(=O)O", "value measured": "0 (mortality rate of 0˜30%)"}
{"chemical smiles": "CC(=O)N1N=C(C)CN(N=Cc2ccc[n+](CCCS(=O)(=O)[O-])c2)C1=O", "value measured": "9 (90˜100%)"}
{"chemical smiles": "CC1=NNC(=O)N(N=Cc2ccc[n+](CC=CS(=O)(=O)[O-])c2)C1", "value measured": "7 (70˜90%)"}
{"chemical smiles": "COC(=O)Nc1nc2ccccc2n1CCCS(=O)(=O)O", "value measured": "0 (mortality rate of 0˜30%)"}
{"chemical smiles": "CC1=NNC(=O)N(N=Cc2ccc[n+](CCCS(=O)(=O)[O-])c2)C1", "value measured": "9 (90˜100%)"}
{"chemical smiles": "O=C(NCCc1ccc(OC(F)(F)F)cc1)c1c[n+](CCCS(=O)(=O)O)ccc1C(F)(F)F", "value measured": "3 (30˜50%)"}
{"chemical smiles": "COC(=O)Nc1nc2ccccc2n1CCCCS(=O)(=O)O", "value measured": "0 (mortality rate of 0˜30%)"}
{"chemical smiles": "CC(=O)N1N=C(C)CN(N=Cc2ccc[n+](CC=CS(=O)(=O)[O-])c2)C1=O", "value measured": "5 (50-70%)"}
{"chemical smiles": "N#CCNC(=O)c1c[n+](CCCCS(=O)(=O)O)ccc1C(F)(F)F", "value measured": "7 (70˜90%)"}
{"chemical smiles": "CCC(=O)N1N=C(C)CN(N=Cc2ccc[n+](CC=CS(=O)(=O)[O-])c2)C1=O", "value measured": "5 (50-70%)"}
{"chemical smiles": "CC1=NNC(=O)N(N=Cc2ccc[n+](CCCCS(=O)(=O)[O-])c2)C1", "value measured": "9 (90˜100%)"}
{"chemical smiles": "N#CCNC(=O)c1c[n+](CCCS(=O)(=O)O)ccc1C(F)(F)F", "value measured": "5 (50-70%)"}

---

Tested on: Plutella xylostella
Test: Insecticidal activity, artificial feed surface coating method
Format: in vivo
Conditions: 500 mg/L test solution
observed property: Insecticidal activity (mortality rate grade) Plutella xylostella

{"chemical smiles": "CC(=O)N1N=C(C)CN(N=Cc2ccc[n+](CCCCS(=O)(=O)[O-])c2)C1=O", "value measured": "3 (30˜50%)"}
{"chemical smiles": "CC(=O)N1N=C(C)CN(N=Cc2ccc[n+](CCCS(=O)(=O)[O-])c2)C1=O", "value measured": "5 (50-70%)"}
{"chemical smiles": "CC1=NNC(=O)N(N=Cc2ccc[n+](CCCCS(=O)(=O)[O-])c2)C1", "value measured": "3 (30˜50%)"}
{"chemical smiles": "CC(=O)N1N=C(C)CN(N=Cc2ccc[n+](CC=CS(=O)(=O)[O-])c2)C1=O", "value measured": "5 (50-70%)"}

---

Tested on: Plutella xylostella
Assay: Insecticidal activity, artificial feed surface coating method
Type: in vivo
Conditions: 250 mg/L test solution
Each entry below carries its reported Insecticidal activity (mortality rate grade) Plutella xylostella.
observed property: Insecticidal activity (mortality rate grade) Plutella xylostella

{"compound": "CCC(=O)N1N=C(C)CN(N=Cc2ccc[n+](CC=CS(=O)(=O)[O-])c2)C1=O [IV-7]", "value measured": "0 (mortality rate of 0˜30%)"}
{"compound": "CC(=O)N1N=C(C)CN(N=Cc2ccc[n+](CCCS(=O)(=O)[O-])c2)C1=O [IV-4]", "value measured": "5 (50-70%)"}
{"compound": "CC1=NNC(=O)N(N=Cc2ccc[n+](CC=CS(=O)(=O)[O-])c2)C1 [IV-2]", "value measured": "3 (30˜50%)"}
{"compound": "CC1=NNC(=O)N(N=Cc2ccc[n+](CCCCS(=O)(=O)[O-])c2)C1 [IV-3]", "value measured": "3 (30˜50%)"}

---

Measured Insecticidal activity (mortality rate grade) Aphiscraccivora of individual entries
Test system: Aphiscraccivora
Experiment: Insecticidal activity, dipping method
Assay type: in vivo
Details: 250 mg/L test solution
observed property: Insecticidal activity (mortality rate grade) Aphiscraccivora

{"chemical smiles": "CC1=NNC(=O)N(N=Cc2ccc[n+](CCCS(=O)(=O)[O-])c2)C1", "target desc": "Aphiscraccivora", "value measured": "9 (90˜100%)"}
{"chemical smiles": "CCC(=O)N1N=C(C)CN(N=Cc2ccc[n+](CCCCS(=O)(=O)[O-])c2)C1=O", "target desc": "Aphiscraccivora", "value measured": "7 (70˜90%)"}
{"chemical smiles": "CCC(=O)N1N=C(C)CN(N=Cc2ccc[n+](CCCS(=O)(=O)[O-])c2)C1=O", "target desc": "Aphiscraccivora", "value measured": "7 (70˜90%)"}
{"chemical smiles": "O=C(NCCc1ccc(OC(F)(F)F)cc1)c1c[n+](CCCS(=O)(=O)O)ccc1C(F)(F)F", "target desc": "Aphiscraccivora", "value measured": "5 (50-70%)"}
{"chemical smiles": "N#CCNC(=O)c1c[n+](C/C=C/S(=O)(=O)O)ccc1C(F)(F)F", "target desc": "Aphiscraccivora", "value measured": "9 (90˜100%)"}
{"chemical smiles": "O=C(NCCc1ccc(OC(F)(F)F)cc1)c1c[n+](C/C=C/S(=O)(=O)O)ccc1C(F)(F)F", "target desc": "Aphiscraccivora", "value measured": "3 (30˜50%)"}
{"chemical smiles": "N#CCNC(=O)c1c[n+](CCCS(=O)(=O)O)ccc1C(F)(F)F", "target desc": "Aphiscraccivora", "value measured": "7 (70˜90%)"}
{"chemical smiles": "COC(=O)Nc1nc2ccccc2n1C/C=C/S(=O)(=O)O", "target desc": "Aphiscraccivora", "value measured": "0 (mortality rate of 0˜30%)"}
{"chemical smiles": "CC1=NNC(=O)N(N=Cc2ccc[n+](CCCCS(=O)(=O)[O-])c2)C1", "target desc": "Aphiscraccivora", "value measured": "9 (90˜100%)"}
{"chemical smiles": "CC(=O)N1N=C(C)CN(N=Cc2ccc[n+](CCCS(=O)(=O)[O-])c2)C1=O", "target desc": "Aphiscraccivora", "value measured": "9 (90˜100%)"}
{"chemical smiles": "COC(=O)Nc1nc2ccccc2n1CCCS(=O)(=O)O", "target desc": "Aphiscraccivora", "value measured": "0 (mortality rate of 0˜30%)"}
{"chemical smiles": "CC(=O)N1N=C(C)CN(N=Cc2ccc[n+](CCCCS(=O)(=O)[O-])c2)C1=O", "target desc": "Aphiscraccivora", "value measured": "9 (90˜100%)"}
{"chemical smiles": "CC(=O)N1N=C(C)CN(N=Cc2ccc[n+](CC=CS(=O)(=O)[O-])c2)C1=O", "target desc": "Aphiscraccivora", "value measured": "9 (90˜100%)"}
